- subject-of-test: T1, human PILRA G78 extracellular domain (recombinant hPILRA ECD) (human, UniProt Q9UKJ1 20-197)
- T1 construct: also called hPILRA G78
- measurement-description: SPR, Biacore 8K; hPILRA ECD; antibody with wild-type Fc
Entries and their Kd
// units = nM; emit number, no label

(Q) Entry under review: Anti-PILRA antibody clone 20 (antibody, V domains shown, Humanized) VH: EVQLVQSGAEVKKPGASVKVSCKASGYTFTEYYMYWVRQAPGQGLELIGRIDPEDGGTDYIEKFKNRVTLTADTSTSTAYLELSSLRSEDTAVYYCATTIRGTVFAFWGQGTLVTVSS VL: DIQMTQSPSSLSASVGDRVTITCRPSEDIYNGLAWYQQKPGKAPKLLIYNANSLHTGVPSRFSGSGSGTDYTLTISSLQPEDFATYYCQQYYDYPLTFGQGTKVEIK . Reported Kd?
(A) 1.73

Continuing:
(Q) I am curious: what Kd value has been reported for Anti-PILRA antibody clone 31 (antibody, V domains shown, Humanized) VH: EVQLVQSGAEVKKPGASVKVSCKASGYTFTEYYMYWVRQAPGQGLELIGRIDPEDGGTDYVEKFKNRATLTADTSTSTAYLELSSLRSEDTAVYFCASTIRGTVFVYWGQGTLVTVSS VL: DIQMTQSPSSLSASVGDRVTITCRASEDIFNGLAWYQQKPGKSPKLLIYNAKTLHTGVPSRFSGSGSGTDYTLTISSLQPEDFATYYCQQYYDYPLTFGQGTKVEIK ?
(A) 0.915

(Q) GET /values?readout=Kd&item= Anti-PILRA antibody clone 16 (antibody, V domains shown, Humanized) VH: EVQLVQSGAEVKKPGASVKVSCKASGYTFTEYYMYWVRQAPGQGLELIGRIDPEDGGTDYVEKFKNRATITADTSTSTAYLELSSLRSEDTAVYYCASTIRGTVFVYWGQGTLVTVSS VL: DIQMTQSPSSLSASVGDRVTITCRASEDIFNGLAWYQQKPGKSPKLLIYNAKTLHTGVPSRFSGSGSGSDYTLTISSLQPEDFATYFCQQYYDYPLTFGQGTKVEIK
(A) 11
